# TESTED ON: human IL-17A (Homo sapiens, UniProt Q16552)
# Sequence (Q16552 24-155): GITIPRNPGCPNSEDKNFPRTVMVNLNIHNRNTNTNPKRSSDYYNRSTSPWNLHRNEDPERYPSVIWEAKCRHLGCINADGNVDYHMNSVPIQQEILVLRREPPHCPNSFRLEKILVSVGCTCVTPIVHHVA
Property: log10 of IC50; scope: individual compounds
REPORTED PROPERTY: log10 of IC50 (log10 of the value in nM)

# COMPOUND, TESTED ON, log10 of IC50
records = [
    ("COCC(c1ccnc(NC(=O)C(NC(=O)C(F)(F)c2ccnn2C)C2CCC(C)CC2)c1)N1CC(C(F)(F)F)NC1=O (single isomer, unassigned) [Example 248]", "human IL-17A (Homo sapiens, UniProt Q16552)", 1.73),
    ("COCC(c1ccnc(NC(=O)[C@@H](NC(=O)Cc2cc(C)[nH]n2)[C@H]2CC[C@H](C)CC2)c1)N1C[C@@H](C(F)(F)F)NC1=O (single isomer, unassigned) [Example 114]", "human IL-17A (Homo sapiens, UniProt Q16552)", 1.91),
    ("CC1CCC(C(NC(=O)c2ccnn2C(C)C)C(=O)Nc2cc(C(C)N3CC(C(F)(F)F)NC3=O)ccn2)CC1 (stereo not drawn) [Example 241]", "human IL-17A (Homo sapiens, UniProt Q16552)", 1.46),
    ("CN1C(=O)N(Cc2ccnc(NC(=O)[C@@H](NC(=O)OC(C)(C)C)[C@H]3CC[C@H](C)CC3)c2)CC12CCC2 [Example 23]", "human IL-17A (Homo sapiens, UniProt Q16552)", 3.84),
    ("C[C@H]1CC[C@H]([C@H](NC(=O)c2nonc2C2CC2)C(=O)Nc2cc(C(CO)N3C[C@@H](C(F)(F)F)NC3=O)ccn2)CC1 (single isomer, unassigned) [Example 233]", "human IL-17A (Homo sapiens, UniProt Q16552)", 0.95),
    ("COCC(c1ccnc(NC(=O)[C@@H](NC(=O)c2ncsc2C)[C@H]2CC[C@H](C)CC2)c1)N1C[C@@H](C(F)(F)F)NC1=O (single isomer, unassigned) [Example 91]", "human IL-17A (Homo sapiens, UniProt Q16552)", 2.08),
    ("COC[C@H](c1ccnc(NC(=O)C(NC(=O)c2nonc2C2CC2)C2CCC(C)(F)CC2)c1)N1C[C@@H](C(F)(F)F)NC1=O (single isomer, unassigned) [Example 296]", "human IL-17A (Homo sapiens, UniProt Q16552)", 3.65),
    ("CC(C)n1nccc1C(=O)N[C@H](C(=O)Nc1cc(C[C@H]2C[C@@H](C(F)(F)F)NC2=O)ccn1)[C@H]1CC[C@H](C)CC1 [Example 156]", "human IL-17A (Homo sapiens, UniProt Q16552)", 1.72),
    ("O=C(CCC(F)(F)F)NC(c1ccnc(NC(=O)[C@@H](NC(=O)c2cocn2)C2CCC(F)(F)CC2)c1)C1CC1 (stereo partly drawn) [Example 109]", "human IL-17A (Homo sapiens, UniProt Q16552)", 3.89),
    ("CC[C@H](c1ccnc(NC(=O)[C@@H](NC(=O)c2nonc2C2CC2)C2CCC(F)(F)CC2)c1)N1C[C@@H](C(F)(F)F)NC1=O [Example 212]", "human IL-17A (Homo sapiens, UniProt Q16552)", 1.36),
    ("CCn1nccc1C(=O)NC(C(=O)Nc1cc(CN2CC(C(F)(F)F)NC2=O)ccn1)C1CCC(F)CC1 (stereo not drawn) [Example 293]", "human IL-17A (Homo sapiens, UniProt Q16552)", 2.18),
    ("COCC(c1ccnc(NC(=O)C(NC(=O)C(F)(F)c2cc(F)cc(F)c2)C2CCC(C)CC2)c1)N1CC(C(F)(F)F)NC1=O (single isomer, unassigned) [Example 250]", "human IL-17A (Homo sapiens, UniProt Q16552)", 1.58),
]
